system: RXF-631 renal; test: NCI tumour cell line growth inhibition, 48 h

| compound | TGI |
| --- | --- |
| CCC[CH2][Sn]1([CH2]CCC)[O]C(=O)c2cccnc2[O]1 | 2.73 µM |
| O=c1[nH]c2cc(Cl)ccc2nc1/C(=N\O)C(O)c1cccc([N+](=O)[O-])c1 (centres undefined) | > 100 µM |
| COC(=O)C(=O)C(C(=O)C(=O)Nc1ccc(F)cc1)c1nc2ccc([N+](=O)[O-])cc2[nH]c1=O (centres undefined) | > 100 µM |
| CCN(CC)c1c(C(=O)/C=C/c2ccc(OC)cc2)c(-c2ccccc2)nn(C)c1=O | > 100 µM |
| COc1cc(OC(=O)c2ccccc2)cc2c1C(=O)C=CC2=O | 41.5 µM |
| CCOC(=O)NC(=O)c1cn(CCOC(=O)CCCCCCCCC(=O)OCCn2cc(C(=O)NC(=O)OCC)c(=O)[nH]c2=O)c(=O)[nH]c1=O | > 100 µM |
| COC1CC(OS(=O)(=O)c2ccc([N+](=O)[O-])cc2)C(OC(=O)c2ccccc2)C(C)O1 (centres undefined) | > 100 µM |
| CCCCNc1nc(C#N)c(N)s1 | > 100 µM |
| Cc1ccc2nc(NC(=O)C(=O)C(C#N)c3nc4ccccc4s3)sc2c1 (centres undefined) | > 100 µM |

---

tested on: SF-295 CNS; test: NCI tumour cell line growth inhibition, 48 h
parameter: GI50

| smiles representation | parameter | result |
| --- | --- | --- |
| C[C@H]1[C@H](C)CC[C@]2(CO)CC[C@]3(C)C(=CC[C@@H]4[C@@]5(C)CCCNC(C)(C)[C@@H]5CC[C@]43C)[C@H]12 | GI50 | 1640 nM |
| CCN(CC)CCCCNc1c2ccccc2[n+](C)c2c1[nH]c1ccccc12 | GI50 | 542 nM |
| COc1ccc(-c2cn(-c3cc(OC)c(OC)c(OC)c3)c(SCc3ccccc3)n2)cc1OC | GI50 | > 100000 nM |
| C=C1C(=O)O[C@H]2[C@H]1CC/C(COC(=O)NCc1cn(C)c3ccccc13)=C\CC[C@@]1(C)O[C@@H]21 | GI50 | 3270 nM |

---

test system: SF-295 CNS; assay: NCI tumour cell line growth inhibition, 48 h
parameter: TGI (µM)

| compound | parameter | rel | result number |
| --- | --- | --- | --- |
| CCc1n[nH]c(=O)n1/N=C/c1c(O)ccc2ccccc12 | TGI | > | 100 |
| O=C(Nc1ccc(Cl)cc1)c1cc2cc(N=Nc3ccccc3Cl)ccc2oc1=O | TGI | = | 91.9 |
| C/C(=N\NS(=O)(=O)c1ccc(C)cc1)C(CN1CCCCC1)C(c1ccccc1)c1c(O)c2ccccc2oc1=O (stereo unspecified) | TGI | > | 100 |
| Cc1cc2c(cc1C)N(C(=O)CCl)CC(=O)N2 | TGI | = | 29.6 |
| CC1CCC(NC(=O)N(CCCl)N=O)CC1 (stereo unspecified) | TGI | = | 36.3 |
| C(=C\c1cccs1)/c1cccc(/C=C/c2cccs2)n1 | TGI | > | 100 |

---

Below is a list of entries, each paired with its recorded TGI value.
tested on: 786-0 renal; assay: NCI tumour cell line growth inhibition, 48 h
parameter: TGI (µM)

| molecule | experimental target | units symbol | rel | result number |
| --- | --- | --- | --- | --- |
| O=S1(=O)N=C(SCc2ccccc2)N(c2ccccc2)c2ccncc21 | 786-0 renal | µM | > | 100 |
| O=C(CN1CCCCC1)Nc1ccc2sc3ccccc3c(=O)c2n1 | 786-0 renal | µM | = | 37.2 |
| COc1cc2c(cc1C)NC(=O)/C2=C/c1ccccn1 | 786-0 renal | µM | = | 8.38 |
| O=c1[nH]c2cc(Cl)ccc2nc1/C(=N\O)C(O)c1cccc([N+](=O)[O-])c1 (stereo not given) | 786-0 renal | µM | > | 100 |
| C[C@H]1[C@H](C)CC[C@]2(CO)CC[C@]3(C)C(=CC[C@@H]4[C@@]5(C)CCCNC(C)(C)[C@@H]5CC[C@]43C)[C@H]12 | 786-0 renal | µM | = | 3.06 |
| COc1cc(CSc2nc3ccc(C)cc3c(=O)n2-c2ccccc2)cc(OC)c1OC | 786-0 renal | µM | > | 100 |
| N#CC(NC12CC3CC(CC(C3)C1)C2)c1ccc2c(c1)OCO2 (stereo not given) | 786-0 renal | µM | > | 100 |
| CC(C)C1CC[C@@H](C)C[C@@]1(O)CC(N)=O (stereo not given in full) | 786-0 renal | µM | > | 100 |
| O=C1/C(=C\c2ccc(O)cc2)CCC/C1=C/c1ccc(Cl)c(Cl)c1 | 786-0 renal | µM | = | 6.05 |
| Cc1cccc(C)c1NC(=O)C(C#N)C1=C(Cl)C(=O)c2ccccc2C1=O (stereo not given) | 786-0 renal | µM | = | 45.7 |

---

tested on: M14 melanoma; assay: NCI tumour cell line growth inhibition, 48 h
parameter: GI50

| compound | parameter | result |
| --- | --- | --- |
| CCC(C)(CC(C)(C)C(=O)NCC(=O)NC(Cc1ccccc1)C(=O)NC(Cc1ccccc1)C(=O)NCC(=O)NC1CC(OC2CC(O)(C(=O)CO)Cc3c(O)c4c(c(O)c32)C(=O)c2c(OC)cccc2C4=O)OC(C)C1O)C(=O)NCC(C)O (stereo unspecified) | GI50 | 120 µg/mL |
| C(#Cc1ccccc1C#Cc1cccs1)c1cccs1 | GI50 | 32.9 µM |
| C#Cc1c(F)ccc2cc(O)cc(-c3ncc4c(N5CC6CCC(C5)N6)nc(OC[C@@]56CCCN5C[C@H](F)C6)nc4c3F)c12 | GI50 | 14 µM |
| COc1ccc(CN2c3ccccc3Sc3ccccc32)c(F)c1 | GI50 | 0.0381 µM |
| COc1ccc(-c2c[nH]c(C(=O)O)c2-c2cc(OC)c(OC)c(OC)c2)cc1 | GI50 | 3.65 µM |
| C=C1C(=O)O[C@H]2[C@H]1CC/C(COC(=O)NCc1ccc(Cn3c(=O)sn(CCCl)c3=O)cc1)=C\CC[C@@]1(C)O[C@@H]21 | GI50 | 1.82 µM |

---

Below is a list of entries, each paired with its recorded GI50 value.
system: OVCAR-5 ovarian; assay: NCI tumour cell line growth inhibition, 48 h

| compound | GI50 |
| --- | --- |
| COc1ccc(C(=O)c2cc(OC)c(OC)c(OC)c2)cc1OC(=O)CCl | 3.61 µM |
| COc1ccc(C(=O)OC2C(OC3C(O)COC(O[C@H]4C[C@H]5[C@@H]6CC=C7C[C@@H](O)CC[C@]7(C)[C@H]6CC[C@]5(C)[C@H]4[C@H](C)C(=O)CCC(C)C)C3OC(N)=O)OCC(O)C2O)cc1 (stereo not given in full) | 0.555 µM |
| O=C(CCCCCCCCC(=O)N/N=C\c1ccccc1O)N/N=C\c1ccccc1O | 3.35 µM |
| CC(C)[C@H](N)C(=O)N1CCC[C@H]1B(O)O | > 100 µM |
| CC/C=C1/C(=O)C=C[C@@H]1C/C=C\CCCC(=O)OC | 4.73 µM |

---

system: SK-MEL-5 melanoma; test: NCI tumour cell line growth inhibition, 48 h; in the data active means GI50 below about 0.43 µM; inactive means the rest
Classes used: Y (active), N (inactive)

| molecule | group label |
| --- | --- |
| COc1ccc(C(=O)OC2C(OC3C(O)COC(O[C@H]4C[C@H]5[C@@H]6CC=C7C[C@@H](O)CC[C@]7(C)[C@H]6CC[C@]5(C)[C@H]4[C@H](C)C(=O)CCC(C)C)C3OC(N)=O)OCC(O)C2O)cc1 (some centres undefined) | Y |
| CC(C)(C)OC(=O)N1CCN(CCn2cc(C(F)(F)F)c3c(Cl)ncnc32)CC1 | N |
| COc1cc2c(c(OC)c1OC)-c1ccc(SC)c(=O)cc1C(CO)C2 (centres undefined) | Y |
| C#Cc1c(F)ccc2cc(O)cc(-c3ncc4c(N5CC6CCC(C5)N6)nc(OC[C@@]56CCCN5C[C@H](F)C6)nc4c3F)c12 | N |
| C=C(C)C(=O)O[C@H]1CC(=C)[C@@H]2C[C@H](O)[C@](O)(CCl)[C@@H]2[C@H]2OC(=O)C(=C)[C@@H]21 | N |
| COc1c(C)c2c(c(O)c1C/C=C(\C)CCC(=O)O)C(=O)OC2 | Y |
| C=C1CCC2C3(C)COC(c4ccc(N(C)C)cc4)OC3CCC2(C)C1C/C=C1/C(=O)OCC1O (centres undefined) | N |
| CC(C)[C@H](N)C(=O)N1CCC[C@H]1B(O)O | N |
| CN(CCCn1c2c(c3ccccc3c1=O)C(=O)c1ccccc1-2)CCCn1c2c(c3ccccc3c1=O)C(=O)c1ccccc1-2 | N |
